Test system: Mus musculus
measurementProtocol: Percentage reduction in triglyceride measured on 0 and 9th day at a dose of 200 mg/kg
Assay type: functional
Kindly supply the reported Reduction in TG values for the records listed here.

Qu. Tell me the measured Reduction in TG of O=C1NC(=O)/C(=C/c2ccc(OCCn3cnc4ccccc43)cc2)S1 , please.
Ans. 76%

Qu. I'd like to know its Reduction in TG. The compound in question is O=C1NC(=O)/C(=C/c2ccc(OCCn3ccc4ccccc43)cc2)S1
Ans. 37%

Qu. Given Cc1c(C)c2c(c(C)c1O)CCC(C)(COc1ccc(CC3SC(=O)NC3=O)cc1)O2 (stereo not given) , state its recorded Reduction in TG.
Ans. 50%

Qu. // returns reported Reduction in TG for input O=C1NC(=O)/C(=C/c2ccc(OCCn3c(C(=O)O)cc4ccccc43)cc2)S1
Ans. 0%

Qu. Can you look up the measured Reduction in TG of O=C1NC(=O)C(Cc2ccc(OCCn3ccc4ccccc43)cc2)S1 (stereo not given) for me?
Ans. 77%
